Target: T1, Recombinant mouse DDR2 ECD-Fc (R&D systems, Cat. No. 7479-DR-050) (mouse, UniProt Q62371 22-399, biotinylated)
T1 construct: Bought protein; not shown: Fc part of the bought fusion protein, not described
T1 sequence: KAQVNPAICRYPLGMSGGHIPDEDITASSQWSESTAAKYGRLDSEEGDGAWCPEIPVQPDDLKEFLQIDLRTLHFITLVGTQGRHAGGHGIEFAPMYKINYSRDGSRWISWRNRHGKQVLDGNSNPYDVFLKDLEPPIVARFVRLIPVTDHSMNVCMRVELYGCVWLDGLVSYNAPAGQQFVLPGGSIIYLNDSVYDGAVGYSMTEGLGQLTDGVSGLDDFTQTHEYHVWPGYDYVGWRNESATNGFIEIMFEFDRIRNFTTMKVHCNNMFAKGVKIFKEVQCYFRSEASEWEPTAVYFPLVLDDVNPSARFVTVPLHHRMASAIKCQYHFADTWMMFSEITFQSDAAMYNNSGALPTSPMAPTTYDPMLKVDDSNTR
Assay: Octet tandem binning on captured mouse DDR2 ECD-Fc; competitor Ab1 (bound first) DAB0060
Parameter Octet response of Ab2: see the listing below.
readout type: Octet response of Ab2

INSERT INTO assay_data (binder, value_reported) VALUES
  ('DAB0065 (antibody, V domains shown, Variable regions from immunized rabbits) VH: QSVEESGGRLVTPGTPLTLTCTVSGFSLSTSAMSWVRQAPGKGLEWIGMITYGGSGSTWYASWANGRFTISKTSTTVTLKMTSPTTEDTASYFCARVYGTIGSNFYSIYSFNLWGQGTLVTVSS VL: AAVLTQTPSPVSAAVGGTVSISCQSSKSVYNSNYLSWYQQKPGQPPKLLIYYTSALASGVSSRFKGSGSGTRFTLTISDVQCDDAATYYCAGGYSSSSDNGFGGGTKVEIK', 1.51),
  ('DAB0045 (antibody, V domains shown, Variable regions from immunized rabbits) VH: QSVEESGGRLVTPGTPLTLTCTVSGFSLSSYSMGWVRQAPGKGLEYIGVINTSDSAYYASWAKGRFTISRTSTTVDLKMTSLTTEDTATYFCARAIGYYGSGWGACYFNLWGQGTLVTVSS VL: AIKMTQTPSSVSAAVGGTVTVNCQASEDIKSYLAWYQQKPGQPPKLLIYSASTLASGVSSRFKGSGSGTQFTLTISDLECADAATYYCQSYYGTSTTGEYNAFGGGTKVEIK', 1.09),
  ('DAB0060 (antibody, V domains shown, Variable regions from immunized rabbits) VH: QSVEESGGRLVTPGTALTLTCTASGFSLSSYDMSWVRQAPGEGLEWIGTIFTEGSTSCASWVKGRFTISRTSTTVDLKITSPTTEDTATYFCVRGTTSNRLWGQGTLVTVSS VL: DVVMTQTPASVEAVVGATVTIRCQASESITNYLSWYQQKPGQPPKVLIYYASTLESGVPSRFKGSGSGTQFTLTISDLECADAATYYCQSNYFSSSYSYGNTFGGGTKVEIK', 0);
